system: Chordin-like protein 2 (CHRDL2); experiment: CHRDL2 small-molecule binders, primary screen, biochemical, small-molecule microarray, 635 nm fluorescence (AID 1126); settings: small-molecule microarray binding, fluorescence 635 nm; higher = more signal;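 further: printed compound slides probed with Chrdl2 protein at 4 µg/mL for 1 h at 4 C; score merges 667 nm emission intensity with signal to noise over three replicate slides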
READOUT_TYPE: composite z-score

Here is how some compounds turned out for composite z-score.
CC(C)c1ccc(NN2C(C(O)C3=C[C@H]4C[C@@H](C3)C4(C)C)C=CC3C(=O)N(c4ccccc4)C(=O)C32)cc1 (stereo partly drawn)    0.4
COC(=O)[C@@]1(Cc2ccc(OC)cc2)[C@H]2c3cc(C(=O)N(C)C)n(Cc4c(CO)[nH]cc(C)c4=O)c3C[C@H]2CN1C(=O)c1ccccc1    -0.31
C=CCOC(=O)[C@@H]1[C@H]2C(=O)O[C@H](c3ccccc3)[C@H](c3ccccc3)N2[C@H](c2ccc(OCCOC(=O)[C@@H]3C[C@@H]4C(=O)N[C@@H](CC(C)C)C(=O)N4[C@@H]3c3ccc(O)cc3)cc2)[C@@]12C(=O)Nc1ccc(I)cc12    1.1
COCCOC(=O)N1C(=O)[C@@]2(c3cc(C#CCNC(N)=O)ccc31)[C@H](C(=O)Nc1nc3ccccc3s1)[C@H]1C(=O)O[C@H](c3ccccc3)[C@H](c3ccccc3)N1[C@@H]2c1ccc(O)cc1    0.306
C=CCNC(=O)[C@@H]1[C@H]2C(=O)O[C@H](c3ccccc3)[C@H](c3ccccc3)N2[C@H](c2ccc(O)cc2)[C@@]12C(=O)N(C(=O)OCCOC)c1ccc(C#CCC(C(=O)OC)C(=O)OC)cc12    0.413
C[N+](C)(C)CCCC[C@@H]1NC(=O)[C@H]2C[C@@H](C(=O)O)[C@@H](c3ccc(O)cc3)N2C1=O    0.616
CC1C2C(CCCO)=CC(C3C(=O)N(C)C(=O)C23)N1Cc1cccc(OC(F)(F)F)c1 (stereo not drawn)    -0.262
CN1C(=O)C2C=CC(C(O)COCc3ccccc3)N(Nc3ccc([N+](=O)[O-])cc3[N+](=O)[O-])C2C1=O (stereo not drawn)    -0.693

Which measured composite z-score value corresponds to CC(C)C[C@H]1NC(=O)CNC(=O)[C@@]23C(=O)N[C@@H](Cc4ccccc4)C2[C@H](C)[C@@]2(C)O[C@H]2C3/C=C/C/C=C\CNC1=O (stereo partly drawn) ? 0.599

Which measured composite z-score value corresponds to COc1ccc(CCNC(=O)[C@@]2(C)c3ccccc3C(=O)N(Cc3ccc(OC(F)(F)F)cc3)[C@H]2c2ccc(CO)cc2)cc1 ? 0.309

----------
assay: basal HepG2 mitochondrial membrane potential changes, profiling panel, cell-based, JC-1 fluorescence, 24 h, 100 nL compound (AID 1167); conditions: higher = more signal; further: test concentration not given here
Tick 1 if z-score is -0.3 or greater. Tick -1 if z-score is less than -0.3.

COC(=O)[C@@]1(Cc2ccc(F)cc2)[C@@H]2C(=CC(=O)[C@H]2CC(=O)C(=O)N2CCCC2)CN1C(=O)c1ccccc1    1
[N-]=[N+]=NCc1ccccc1[C@H]1OC(c2ccc(OCCCO)cc2)=N[C@@]1(Cc1ccccc1N=[N+]=[N-])C(N)=O    1
COc1ccc(C(=O)Nc2ccc(CN3C(=O)[C@@]4(O[C@@H](CC(=O)N(CCO)Cc5ccccc5)[C@H]([Si](C)(C)c5ccc(OC)cc5)[C@H]4C)c4ccccc43)cc2)cc1    1
CCCC=C(CCC)[C@@H](NC(=O)c1ccc(C(=O)OC)cc1)c1ccc(C(=O)OC)cc1    1
COC(=O)[C@@]1(Cc2ccc(F)cc2)[C@H]2c3cc(C(=O)N(C)C)n(Cc4cccc5ccccc45)c3C[C@H]2CN1C(=O)c1ccccc1    1

Identify whether the reported z-score of the following molecule is -0.3 or greater: COC(=O)C(CC#Cc1ccc2c(c1)[C@]1(C(=O)N2)[C@H](C(=O)N2CCN(c3ncccn3)CC2)[C@H]2C(=O)O[C@H](c3ccccc3)[C@H](c3ccccc3)N2[C@@H]1c1ccc(O)cc1)C(=O)OC -1

Identify whether the reported z-score of the following molecule is -0.3 or greater: COc1ccc(CCNC(=O)[C@@H]2c3ccccc3C(=O)N(Cc3cc(F)cc(C(F)(F)F)c3)[C@H]2c2ccc(CO)cc2)cc1 1

Identify whether the reported z-score of the following molecule is -0.3 or greater: O=C(N1CCOCC1)[C@]1(CCS(=O)(=O)c2ccccc2)N=C(c2ccc(OCCCO)cc2)O[C@@H]1c1ccccc1 1

Identify whether the reported z-score of the following molecule is -0.3 or greater: COC(=O)[C@@]1(Cc2ccc(F)cc2)[C@H]2c3cc(C(=O)N(C)C)n(CCF)c3C[C@H]2CN1C(=O)c1ccccc1 1

Identify whether the reported z-score of the following molecule is -0.3 or greater: C=CCOC(=O)[C@@H]1[C@H]2C(=O)O[C@H](c3ccccc3)[C@H](c3ccccc3)N2[C@H](c2ccc(OCCOC(=O)[C@@H]3C[C@@H]4C(=O)N[C@@H](CC(C)C)C(=O)N4[C@@H]3c3ccc(O)cc3)cc2)[C@@]12C(=O)Nc1ccc(I)cc12 -1

Identify whether the reported z-score of the following molecule is -0.3 or greater: CN1C(=O)C2C=CC(C(O)c3ccc([N+](=O)[O-])cc3)N(Nc3ccccc3)C2C1=O (configuration not stated) -1

Identify whether the reported z-score of the following molecule is -0.3 or greater: CC[C@@H](O[Si](C#C[Si](C(C)C)(C(C)C)C(C)C)(C(C)C)C(C)C)c1cn(Cc2cccc(Cl)c2)nn1 1

Identify whether the reported z-score of the following molecule is -0.3 or greater: COCCCNC(=O)[C@@]1(CCC(=O)OC(C)(C)C)N=C(c2ccc(OCCCO)cc2)O[C@H]1c1ccccc1 1

Identify whether the reported z-score of the following molecule is -0.3 or greater: COc1ccc([Si](C)(C)[C@@H]2[C@@H](CC(=O)N(CCO)Cc3ccccc3)O[C@]3(C(=O)N(Cc4cccc(I)c4)c4ccccc43)[C@H]2C)cc1 1

Identify whether the reported z-score of the following molecule is -0.3 or greater: COCCCNC(=O)[C@@]1(Cc2ccccc2I)c2ccccc2C(=O)N(Cc2ccccc2C(F)(F)F)[C@H]1c1ccc(CO)cc1 1

Identify whether the reported z-score of the following molecule is -0.3 or greater: COc1cccc(C)c1NC(=O)O[C@H]1[C@H](OC(=O)Nc2ccc3c(c2)OCO3)[C@H](OC(=O)Nc2ccc3c(c2)OCO3)[C@@H](OC)O[C@@H]1CO -1

Identify whether the reported z-score of the following molecule is -0.3 or greater: O=C(NCC(F)(F)F)[C@@H]1c2ccccc2C(=O)N(Cc2cc(C(F)(F)F)cc(C(F)(F)F)c2)[C@H]1c1ccc(CO)cc1 1

Identify whether the reported z-score of the following molecule is -0.3 or greater: CCCCN1CC=CC23O[C@@H]4C=CCCOC(=O)C4[C@H]2C(=O)N(CCO)[C@@H]3C1=O (some centres not stated) -1

Identify whether the reported z-score of the following molecule is -0.3 or greater: CCOC(=O)C[C@H]1[C@H](OC(=O)c2cc3ccccc3oc2=O)[C@@H](NC(=O)c2ccc(-c3ccccc3)cc2)c2cc(OCCCO)ccc2N1C(=O)Cc1ccc(OC)cc1 1
